# assay.details: Salivary esketamine levels (LC-MS/MS) after intranasal esketamine 56 mg in TRD patients
# measurement.setup: human, saliva, other: intranasal, 56 mg
measured.attribute: concentration at 20 min

Query: concentration at 20 min for CN[C@]1(c2ccccc2Cl)CCCCC1=O [esketamine, (S)-isomer of ketamine] ?
Reply: > 1000 ng/mL

====

# assay.details: Serum esketamine levels (LC-MS/MS) after intranasal esketamine 56 mg in TRD patients
# measurement.setup: human, serum, other: intranasal, 56 mg, AUC value, single patient, serum, 0-72 h, group 2 patient also on oxcarbazepine
measured.attribute: AUC
Please give the number followed by its unit.

Query: What AUC value was documented for this compound, CN[C@]1(c2ccccc2Cl)CCCCC1=O [esketamine, (S)-isomer of ketamine] ?
Reply: 0.954 µg·h/mL
